Target: T1, monkey TIM-3 extracellular domain protein with hFc tag (cTIM-3-hFc) (monkey)
T1 construct: not shown: human IgG Fc fragment (hFc) of the pCpC vector
T1 chain: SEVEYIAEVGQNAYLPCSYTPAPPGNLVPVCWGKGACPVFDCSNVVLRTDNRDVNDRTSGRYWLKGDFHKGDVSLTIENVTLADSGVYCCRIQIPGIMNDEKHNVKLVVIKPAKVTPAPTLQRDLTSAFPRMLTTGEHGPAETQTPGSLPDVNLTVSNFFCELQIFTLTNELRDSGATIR
Test: ELISA, coated monkey TIM-3 ECD protein, 0.0667 nM antibody
I'd appreciate it if you could supply OD450 values for the items below.
Give bare numbers.

binder="18D2H2 fully human TIM-3 antibody (human IgG4, kappa) (antibody, V domains shown) VH: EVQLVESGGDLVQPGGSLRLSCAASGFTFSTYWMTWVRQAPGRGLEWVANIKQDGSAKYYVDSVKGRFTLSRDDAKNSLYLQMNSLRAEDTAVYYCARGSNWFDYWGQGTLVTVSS VL: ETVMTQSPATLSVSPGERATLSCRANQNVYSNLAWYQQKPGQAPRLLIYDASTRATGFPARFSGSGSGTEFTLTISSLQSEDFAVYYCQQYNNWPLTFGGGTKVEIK" result_number=1.56

Here is the next item to consider.
binder 39E5H1 fully human TIM-3 antibody (human IgG4, kappa) (antibody, V domains shown) VH: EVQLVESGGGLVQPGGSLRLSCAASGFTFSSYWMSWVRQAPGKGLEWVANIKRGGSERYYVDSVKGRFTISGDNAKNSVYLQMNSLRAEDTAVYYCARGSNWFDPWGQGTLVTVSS VL: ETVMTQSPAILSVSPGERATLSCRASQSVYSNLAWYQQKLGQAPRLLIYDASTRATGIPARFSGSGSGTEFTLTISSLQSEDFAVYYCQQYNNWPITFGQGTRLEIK , OD450 observed: 1.37
